Test system: transactivating tegument protein VP16 (Human herpesvirus 1)
assay procedure: VP16 transactivation reporter inhibitors, counter-screen for SRC2 inhibitor project, cell-based, luminescence, single concentration (AID 652007)
condition details: cell-based VP16 transactivation luciferase reporter, at 8.9 µM
Active and inactive are the calls of the source. Rule as the data show it: active = inhibition above about 36%; inactive = the rest.
Possible outcomes: active, inactive

compound: O=C(NCC1COc2ccccc2O1)c1cccc(S(=O)(=O)N2CCN(c3ccccc3)CC2)c1 (stereo not drawn)
assayed target: transactivating tegument protein VP16 (Human herpesvirus 1)
classification: inactive
//
compound: CCCCN1C[C@@H](COCc2ccccc2)Oc2cc(F)ccc2S1(=O)=O
assayed target: transactivating tegument protein VP16 (Human herpesvirus 1)
classification: inactive
//
compound: Cc1cccc(N2CC(C(=O)NC3CCCCCC3)CC2=O)c1C (stereo not drawn)
assayed target: transactivating tegument protein VP16 (Human herpesvirus 1)
classification: inactive
//
compound: C=CCN(CC=C)c1ncnc2[nH]ncc12
assayed target: transactivating tegument protein VP16 (Human herpesvirus 1)
classification: inactive
//
compound: COc1ccc(CN2C(=O)C(CC(=O)NCCN3CCOCC3)CC(C(=O)N(C(C)C)C(C)C)=C2C)cc1 (stereo not drawn)
assayed target: transactivating tegument protein VP16 (Human herpesvirus 1)
classification: inactive
//
compound: Cc1c(CCC(=O)O)c(=O)oc2cc(OCc3ccccc3Br)ccc12
assayed target: transactivating tegument protein VP16 (Human herpesvirus 1)
classification: inactive
//
compound: Oc1ccc(CCNc2ncnc3ccc(Cl)cc23)cc1
assayed target: transactivating tegument protein VP16 (Human herpesvirus 1)
classification: inactive
//
compound: COc1cncc(-c2cnc3sc(NCCc4ccccn4)nn23)c1
assayed target: transactivating tegument protein VP16 (Human herpesvirus 1)
classification: inactive
//
compound: CC(C)(C)c1ccc(-c2noc(CCC(=O)NCC3CCCO3)n2)cc1 (stereo not drawn)
assayed target: transactivating tegument protein VP16 (Human herpesvirus 1)
classification: active
//
compound: COc1cc(NC(=O)CSCC(=O)Nc2cccc(C(F)(F)F)c2)c(Cl)cc1Cl
assayed target: transactivating tegument protein VP16 (Human herpesvirus 1)
classification: inactive
//
compound: CCC(C)(C)c1ccc(Oc2ccc(NC(=O)COC(=O)C3=COCCO3)cc2)cc1
assayed target: transactivating tegument protein VP16 (Human herpesvirus 1)
classification: inactive
//
compound: CC(=O)c1ccc(OC2(C)CCN(Cc3ccc(OC(F)(F)F)cc3)C2)cc1 (stereo not drawn)
assayed target: transactivating tegument protein VP16 (Human herpesvirus 1)
classification: inactive
//
compound: CCCCN1C=CC(=C2C(=O)c3ccccc3C2=O)C=C1
assayed target: transactivating tegument protein VP16 (Human herpesvirus 1)
classification: active

Attribution: PubChem BioAssay
